- Tested on: UISO cells (VN-MCC)
- assayNotes: qHTS cell viability (CellTiter-Glo, 72 h; primary and follow-up small molecule screen)
- Assay type: cell-based, human
Provide the reported Area under the dose-response curve (AUC) UISO Replicate 3 of each item.
One number for each entry.

Known Area under the dose-response curve (AUC) UISO Replicate 3 results, listed for orientation:
# molecule, observedMeasurement
data = [
    ("CCCC[C@@H](C)/C=C(C)/C=C(\\C)C(=O)NC1=C[C@@](O)(/C=C/C=C/C=C/C(=O)NC2=C(O)CCC2=O)[C@@H]2O[C@@H]2C1=O", 408.1),
    ("CCCNC(=O)[C@H]1O[C@@H]1C(=O)N[C@H](C(=O)N1CCC[C@H]1C(=O)OC)C(C)CC (stereo partly drawn)", 334.3),
]

--- query ---
Query: Report the value of Area under the dose-response curve (AUC) UISO Replicate 3 obtained on UISO cells (VN-MCC) for O=C(/C=C/c1ccc(/C=C/C(=O)Nc2ccc(C3=NCCN3)cc2)cc1)Nc1ccc(C2=NCCN2)cc1 .
Result: 432.9
